experimental-details: in vivo
run-parameters: Nrc nude, mouse
property-name: MTD at 24 h (mg/kg)
Answers are plain numbers, in mg/kg.

Exercise: What does the record list as MTD at 24 h for CC(=O)O[C@H]1C(=O)[C@@]2(C)[C@H]([C@H](OC(=O)c3ccccc3)[C@]3(O)C[C@H](OC(=O)[C@H](O)[C@@H](NC(=O)c4ccccc4)c4ccccc4)C(C)=C1C3(C)C)[C@]1(OC(C)=O)CO[C@@H]1C[C@@H]2O ?
Key: 1

Entry source: patent US20100305201A1
